Cited source for all entries: patent US12697336B2

method.summary: Solubility of Compound (1) in acetic acid
Type: physicochemical
run.conditions: organic solvent or mixture, read-out: Solubility in acetic acid (obtainable solution concentration)
reported.endpoint: solubility

Asked: Value lookup for solubility; key = NCC(=O)Nc1cncc(-c2nn3c(=O)cc(N4CCNCC4)nc3s2)c1 [Compound (1)]
Given back: > 300 mg/mL
